# test-description: Cytotoxicity against human HepG2.2.15 cells
# Type: cell-based, HepG2 2.2.15
Readings of CC50 for the listed compounds
Field format: number, assumed µM, no unit text.

# query-smiles, observation-type, measured-number
records = [
    ("CCOCC(=O)O[C@H]1C[C@@H]2C(=CC[C@@H]3[C@@]2(C)C(=O)C[C@]2(C)[C@@H]([C@@](C)(O)C(=O)CCC(C)(C)O)[C@H](OC(=O)COCC)C[C@@]32C)C(C)(C)[C@@H]1OC(=O)COCC", "CC50", 184),
    ("CC(=O)O[C@@H]1[C@@H](O)C[C@@H]2C(=CC[C@@H]3[C@@]2(C)C(=O)C[C@]2(C)[C@@H]([C@@](C)(O)C(=O)CCC(C)(C)OC(C)=O)[C@H](O)C[C@@]32C)C1(C)C", "CC50", 254),
]

Please report the recorded CC50 for `CCCC(=O)O[C@H]1C[C@@H]2C(=CC[C@@H]3[C@@]2(C)C(=O)C[C@]2(C)[C@@H]([C@@](C)(O)C(=O)CCC(C)(C)OC(C)=O)[C@H](O)C[C@@]32C)C(C)(C)[C@@H]1O` .
12.4

---

# Test system: Hepatitis B virus
# test-description: Antiviral activity against HBV infected in human HepG2.2.15 cells assessed as inhibition of viral e antigen production
# Format: functional, organism-based
# setup-conditions: HepG2 2.2.15
pIC50: −log10 of the molar value.
Readings of pIC50 for the listed compounds

# query-smiles, pIC50
records = [
    ("CCC(=O)O[C@H]1C[C@@H]2C(=CC[C@@H]3[C@@]2(C)C(=O)C[C@]2(C)[C@@H]([C@@](C)(O)C(=O)CCC(C)(C)OC(C)=O)[C@H](O)C[C@@]32C)C(C)(C)[C@@H]1OC(=O)CC", 3.22),
    ("CCOCC(=O)O[C@H]1C[C@@H]2C(=CC[C@@H]3[C@@]2(C)C(=O)C[C@]2(C)[C@@H]([C@@](C)(O)C(=O)CCC(C)(C)OC(C)=O)[C@H](OC(=O)COCC)C[C@@]32C)C(C)(C)[C@@H]1OC(=O)COCC", "< 3.25"),
    ("COCC(=O)O[C@H]1C[C@H]2[C@]3(C)C(=O)C[C@]4(C)[C@@H]([C@@](C)(O)C(=O)CCC(C)(C)OC(C)=O)[C@H](OC(=O)COC)C[C@@]4(C)[C@@H]3C[C@H]3O[C@]32C(C)(C)[C@@H]1OC(=O)COC", 3.23),
    ("COCC(=O)O[C@H]1C[C@H]2[C@]3(C)C(=O)C[C@]4(C)[C@@H]([C@@](C)(O)C(=O)CCC(C)(C)OC(C)=O)[C@H](OC(=O)COC)C[C@@]4(C)[C@@H]3C[C@@H](O)[C@@]2(OC(=O)c2cccc(Cl)c2)C(C)(C)[C@@H]1OC(=O)COC", "< 2.76"),
    ("CC(=O)O[C@@H]1[C@@H](O)C[C@@H]2C(=CC[C@@H]3[C@@]2(C)C(=O)C[C@]2(C)[C@@H]([C@@](C)(O)C(=O)CCC(C)(C)OC(C)=O)[C@H](O)C[C@@]32C)C1(C)C", "< 3.60"),
]

Please report the recorded pIC50 for `CCOCC(=O)O[C@H]1C[C@H]2[C@]3(C)C(=O)C[C@]4(C)[C@@H]([C@@](C)(O)C(=O)CCC(C)(C)OC(C)=O)[C@H](OC(=O)COCC)C[C@@]4(C)[C@@H]3C[C@H]3O[C@]32C(C)(C)[C@@H]1OC(=O)COCC` .
< 3.20

Please report the recorded pIC50 for `CC(=O)O[C@H]1C[C@H]2[C@]3(C)C(=O)C[C@]4(C)[C@@H]([C@@](C)(O)C(=O)CCC(C)(C)OC(C)=O)[C@H](OC(C)=O)C[C@@]4(C)[C@@H]3C[C@@H](O)[C@@]2(OC(=O)c2cccc(Cl)c2)C(C)(C)[C@@H]1OC(C)=O` .
3.49
